Can you tell me absorption maximum for the items I'm about to list?
# Protocol description: solvent given as SMILES
# Protocol conditions: in Cc1ccccc1
One number for each entry, in nm.

Compound | absorption maximum (nm)
CCN1c2ccc(/C=N/Nc3ccccn3)cc2Sc2cc(-c3cccc4ccccc34)ccc21 | 378
COc1ccc(C2=C(c3ccccc3)C(c3ccccc3)=[N+]3C2=Nc2c(-c4ccc(OC)cc4)c(-c4ccccc4)c(-c4ccccc4)n2[B-]3(F)F)cc1 | 656
CCCCC1=Cc2c3ccc4cccc5ccc(c6cc(-c7ccc(N(c8ccccc8)c8ccccc8)cc7)n(c26)P1(=O)c1ccccc1)c3c45 (stereo not given) | 434
O=C1/C(=C\c2ccc(N(c3ccccc3)c3ccccc3)cc2)S(=O)(=O)c2ccccc21 | 485
CC(C)(C)c1ccc(C(C)(C)C)c(N2C(=O)c3cccc4c(-c5ccc(-c6ccc(N(c7ccccc7)c7ccccc7)cc6)s5)ccc(c34)C2=O)c1 | 440
CC(C)(C)c1ccc2c(c1)c1cc(C(C)(C)C)ccc1n2-c1ccc(C#Cc2cccc(C#Cc3ccc(-n4c5ccc(C(C)(C)C)cc5c5cc(C(C)(C)C)ccc54)cc3)c2)cc1 | 345
COc1ccccc1-c1nc2c3ccccc3c3ccccc3c2o1 | 364
CCN1c2ccc(/C=N/Nc3ccccn3)cc2Sc2cc(/C=N/Nc3ccccn3)ccc21 | 392

Give one value of absorption maximum per listed compound.
1. CC1=CC(C)=[N+]2C1=C(c1ccc(C(=O)OC3C[C@@H]4CC[C@]3(C)C4(C)C)cc1)c1c(C)cc(C)n1[B-]2(F)F (stereo not given in full)
2. Cn1c(=O)c(/N=N/c2cc(S(=O)(=O)O)ccc2C(=O)O)c(O)c2ccccc21
3. CCOC(=O)c1cc2ccc3ccccc3c2c(C#N)c1N
4. COC(=O)C(Cc1ccc2oc(-c3ccc4c(c3)c3ccccc3n4-c3ccccc3)nc2c1)NC(=O)OC(C)(C)C (stereo not given)
5. CC1(C)c2ccccc2N(c2ccc3nc4c5ccc(N6c7ccccc7C(C)(C)c7ccccc76)cc5c5cc(N6c7ccccc7C(C)(C)c7ccccc76)ccc5c4nc3c2)c2ccccc21

Ans.
1: 506; 2: 421; 3: 435; 4: 328.9; 5: 456

Below are some compounds; for each one, tell me its absorption maximum.
1. Fc1c(-c2nnc(-c3ccccc3)o2)c(-n2c3ccccc3c3ccccc32)c(F)c(-n2c3ccccc3c3ccccc32)c1-n1c2ccccc2c2ccccc21
2. c1ccc(-c2nc(-c3ccccc3)nc(-c3ccc(N4c5ccccc5[Si](c5ccccc5)(c5ccccc5)c5ccccc54)cc3)n2)cc1

Ans.
[361, 376.66]

Parameter requested: absorption maximum. Apply to each item below.
1. Cc1cc(-n2c3ccccc3c3cc(C#N)ccc32)ccc1-c1ccc(S(=O)(=O)c2ccccc2)cc1C
2. Cc1cc(-c2nc(-c3ccccc3)nc(-c3ccccc3)n2)ccc1N1c2ccccc2[Si](c2ccccc2)(c2ccccc2)c2ccccc21
3. CCOC(=O)CN1C(=O)C2=C(c3ccc(N4CCCCC4)cc3)N(CC(=O)OCC)C(=O)C2=C1c1ccccc1
4. CC1(C)c2ccccc2N(c2ccc(C(=C(C#N)C#N)c3ccc(N4c5ccccc5C(C)(C)c5ccccc54)cc3)cc2)c2ccccc21
5. CCC1(CC)c2ccccc2-c2ccc(C#Cc3ccc4ccc5cccc6ccc3c4c56)cc21
6. N#CC(C#N)=C(/C=C/c1cc2c3c(c1)CCCN3CCC2)c1ccc2c3c(cccc13)CC2
7. CC1=CC(C)=[N+]2C1=C(c1c3ccccc3c(C)c3ccccc13)c1c(C)cc(C)n1[B-]2(F)F

Ans.
1. 341
2. 379.03
3. 499
4. 436
5. 405
6. 526
7. 509

For each listed entry, give its absorption maximum.
1. COc1cc(/C=C/c2nc3ccccc3s2)c(OC)cc1/C=C/c1ccncc1
2. c1ccc(-c2nc(-c3ccccc3)nc(-c3ccc(-n4c5ccccc5c5c6c(ccc54)C4(c5ccccc5-c5ccccc54)c4ccccc4-6)cc3)n2)cc1

Ans.
1. 416
2. 374

Report absorption maximum for every entry below.
1. CC(C)(C)c1ccc(N2c3ccc(C(C)(C)C)cc3B3c4cc(C(C)(C)C)ccc4N(c4ccc(C(C)(C)C)cc4)c4cc(-n5c6ccc(C(C)(C)C)cc6c6cc(C(C)(C)C)ccc65)cc2c43)cc1
2. CC(C)c1cc(C(C)C)c(-c2ccc(-n3c4ccccc4n4c5ccccc5nc34)nc2)c(C(C)C)c1
3. c1ccc(-c2nnc(-c3ccc(-n4c5ccccc5c5ccccc54)cc3)o2)cc1

Ans.
1. 451
2. 345
3. 340

Quick request: absorption maximum for each listed item, please.
1. Cc1cccc2c3ccccc3n(-c3ccc(-c4c(-c5ccccc5)c(C#N)c(C#N)c(-c5ccccc5)c4-c4ccc(-n5c6ccccc6c6cccc(C)c65)cc4)cc3)c12
2. CCCCCCc1ccc(-n2c3c(c4c2c2c(n4-c4ccc(CCCCCC)cc4)-c4cccc(OC)c4NB2c2ccccc2)B(c2ccccc2)Nc2c(OC)cccc2-3)cc1
3. CC1(C)c2ccccc2N(c2ccc(-c3ccc(C#N)cn3)cc2)c2ccccc21

Ans.
339
382
384

Values from the Deep4Chem optical property database
